FYI, the data here is from ChEMBL document CHEMBL3352664.

What inhibition in vivo at 100 mg/kg was measured for each of the following?
Test system: Plasmodium yoelii
Assay: Antimalarial activity against chloroquine-resistant Plasmodium yoelii N-67infected in Swiss Albino mouse assessed as suppression of parasitemia at 100 mg/kg, po once daily for 7 days measured on day 4 post infection
Format: functional
Answers are plain numbers, in %.

Parameters: items (list). Returns: inhibition in vivo at 100 mg/kg for each item.
1. CCN(CC)CCC[C@@H](C)Nc1ccnc2cc(Cl)ccc12 [(R)-CHLOROQUINE]
2. C[C@@H](CCCN1CCCC1)Nc1ccnc2cc(Cl)ccc12
3. CCCCCCCCN(CCCCCCCC)CCC[C@@H](C)Nc1ccnc2cc(Cl)ccc12
4. C[C@H](CCCN1CCCC1)Nc1ccnc2cc(Cl)ccc12

A:
100
100
9.5
100

inhibition in vivo at 100 mg/kg in this record for C[C@@H](CCCN1CCN(C)CC1)Nc1ccnc2cc(Cl)ccc12 : 100
